Origin of measurements: ChEMBL document CHEMBL4316607

# tgt: Glutamate receptor ionotropic, NMDA 2B (Mus musculus, UniProt P35438+Q01097)
# Sequence (Q01097 whole entry, one chain of several): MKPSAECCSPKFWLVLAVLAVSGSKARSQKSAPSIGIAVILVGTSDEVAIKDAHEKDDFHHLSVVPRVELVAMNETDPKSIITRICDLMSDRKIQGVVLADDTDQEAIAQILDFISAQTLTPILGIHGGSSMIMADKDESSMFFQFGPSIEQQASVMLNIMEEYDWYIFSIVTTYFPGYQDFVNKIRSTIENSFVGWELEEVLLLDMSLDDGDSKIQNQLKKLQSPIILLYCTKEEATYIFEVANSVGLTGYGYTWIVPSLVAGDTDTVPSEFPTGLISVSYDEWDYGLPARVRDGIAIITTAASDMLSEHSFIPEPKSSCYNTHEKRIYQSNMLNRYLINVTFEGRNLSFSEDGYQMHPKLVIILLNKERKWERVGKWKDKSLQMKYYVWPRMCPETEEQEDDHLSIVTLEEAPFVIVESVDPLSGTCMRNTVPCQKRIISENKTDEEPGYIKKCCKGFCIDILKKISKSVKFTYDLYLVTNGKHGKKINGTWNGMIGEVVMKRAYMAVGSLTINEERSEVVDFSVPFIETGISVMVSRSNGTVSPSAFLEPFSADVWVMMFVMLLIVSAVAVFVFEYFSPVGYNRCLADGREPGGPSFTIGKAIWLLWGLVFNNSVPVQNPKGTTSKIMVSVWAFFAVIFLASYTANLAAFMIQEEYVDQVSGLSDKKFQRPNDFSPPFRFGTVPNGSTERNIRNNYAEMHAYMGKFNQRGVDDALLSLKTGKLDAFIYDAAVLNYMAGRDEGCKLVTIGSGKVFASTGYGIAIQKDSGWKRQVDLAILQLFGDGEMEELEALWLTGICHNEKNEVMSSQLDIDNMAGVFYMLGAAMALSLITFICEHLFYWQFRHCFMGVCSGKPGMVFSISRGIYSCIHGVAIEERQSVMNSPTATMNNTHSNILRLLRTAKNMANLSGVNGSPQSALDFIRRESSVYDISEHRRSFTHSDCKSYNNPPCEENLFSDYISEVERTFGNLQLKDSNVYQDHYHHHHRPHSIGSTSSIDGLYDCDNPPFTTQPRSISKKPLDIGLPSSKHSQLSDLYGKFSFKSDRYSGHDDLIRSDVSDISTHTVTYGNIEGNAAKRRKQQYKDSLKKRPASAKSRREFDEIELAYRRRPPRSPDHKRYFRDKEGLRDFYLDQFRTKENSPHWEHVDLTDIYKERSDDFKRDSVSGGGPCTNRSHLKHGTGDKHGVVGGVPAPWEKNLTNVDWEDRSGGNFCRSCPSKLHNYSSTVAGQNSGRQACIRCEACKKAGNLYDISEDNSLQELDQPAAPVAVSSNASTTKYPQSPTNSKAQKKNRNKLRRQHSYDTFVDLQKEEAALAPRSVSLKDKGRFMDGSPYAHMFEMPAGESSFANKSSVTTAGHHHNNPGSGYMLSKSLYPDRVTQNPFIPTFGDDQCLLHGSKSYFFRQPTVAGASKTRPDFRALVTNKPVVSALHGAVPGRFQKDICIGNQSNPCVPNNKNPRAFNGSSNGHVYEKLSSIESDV
# experiment summary: Antagonist activity at mouse NR2B receptor expressed in HEK293 cells co-expressing NR1 subunit assessed as reduction in glutamic acid/glycine-induced calcium ion influx by fluorescence based assay
value kind: IC50
Reply with a number, then the unit it belongs to.

Below are worked cases with known answers.
1. COc1ccc(N2CCN(C(=O)C(=O)Nc3ccc4[nH]c(=O)oc4c3)CC2)cc1: 0.2 µM
2. O=C(Nc1ccc2[nH]c(=O)oc2c1)C(=O)N1CCN(c2ccc(C(F)(F)F)cc2)CC1: 0.00631 µM
3. C[C@@H]1CN(C(=O)C(=O)Nc2ccc3[nH]c(=O)oc3c2)CCN1c1ccc(Cl)cc1: 0.00631 µM

Would you mind listing IC50 for each of the following molecules?
1. O=C(Nc1ccc2[nH]c(=O)oc2c1)C(=O)N1CCN(Cc2ccc(Cl)cc2)CC1
2. C[C@@H]1CN(c2ccc(F)c(F)c2)CCN1C(=O)C(=O)Nc1ccc2[nH]c(=O)oc2c1
3. O=C(c1cc(-c2cc[nH]n2)on1)N1CCC(Cc2ccc(F)cc2)CC1
4. O=C(Nc1ccc2[nH]c(=O)oc2c1)C(=O)N1CCN(c2ccc(F)cc2)CC1
5. C[C@@H]1CN(c2ccc(Cl)cc2)CCN1C(=O)C(=O)Nc1ccc2[nH]c(=O)oc2c1
6. O=C(Nc1ccc2[nH]c(=O)oc2c1)C(=O)N1CCN(c2ccc(F)c(F)c2)CC1

1: 0.0631 µM; 2: 0.00631 µM; 3: 0.0631 µM; 4: 0.126 µM; 5: 0.00631 µM; 6: 0.01 µM

---

# experiment summary: […] coefficient, ratio of total drug level in brain to plasma in Sprague-Dawley rat at 0.5 mg/kg, iv dosed via cassette dosing measured after 0.5 hrs
# Format: ADME, organism-based
# recorded conditions: brain and plasma
Consider the following compounds; for each one, report its Kp at 0.5 h.
One number for each entry.

Consider the following illustrative entries.
1. C[C@@H]1CN(c2ccc(Cl)cc2)CCN1C(=O)C(=O)Nc1ccc2[nH]c(=O)oc2c1: 0.95
2. O=C(Nc1ccc2[nH]c(=O)oc2c1)C(=O)N1CCN(c2ccc(C(F)(F)F)cc2)CC1: 2.99
3. O=C(c1cc(-c2ccc(=O)[nH]c2)on1)N1CCC(Cc2ccc(F)cc2)CC1: 0.5
4. O=C(c1cc(-c2ccc(=O)[nH]c2)on1)N1CCC(Cc2ccccc2)CC1: 0.37
5. C[C@@H]1CN(C(=O)C(=O)Nc2ccc3[nH]c(=O)oc3c2)CCN1c1ccc(F)c(F)c1: 1.89

Consider the following items and state reported Kp at 0.5 h for each.
1. O=C(c1cc(-c2cc[nH]n2)on1)N1CCC(Cc2ccc(Cl)cc2)CC1
2. C[C@@H]1CN(C(=O)C(=O)Nc2ccc3[nH]c(=O)oc3c2)CCN1c1ccc(Cl)cc1
3. O=C(Nc1ccc2[nH]c(=O)oc2c1)C(=O)N1CCN(c2ccc(C(F)(F)F)c(F)c2)CC1
4. C[C@@H]1CN(C(=O)C(=O)Nc2ccc3[nH]c(=O)oc3c2)CCN1c1ccc(Cl)c(F)c1
5. O[C@]1(Cc2cc(-c3cn[nH]c3)on2)CC[C@@H](Cc2ccc(C(F)(F)F)cc2)CC1
6. O=C(Nc1ccc2[nH]c(=O)oc2c1)C(=O)N1CCN(c2ccc(F)c(F)c2)CC1

3.27
1.85
0.65
1.19
2.66
0.82

The following compounds each have a reported value; give each one's Kp at 0.5 h.
1. O=C(c1cc(-c2cc[nH]n2)on1)N1CCC(Cc2ccccc2)CC1
2. O=C(Nc1ccc2[nH]c(=O)oc2c1)C(=O)N1CCN(Cc2ccc(Cl)cc2)CC1
3. O=C(Nc1ccc2[nH]c(=O)oc2c1)C(=O)N1CCN(c2ccc(F)c(Cl)c2)CC1
4. O=C(Nc1ccc2[nH]c(=O)oc2c1)C(=O)N1CCN(c2ccc(Cl)c(F)c2)CC1
5. C[C@@H]1CN(c2ccc(F)c(F)c2)CCN1C(=O)C(=O)Nc1ccc2[nH]c(=O)oc2c1
6. O=C(c1cc(-c2ccc(=O)[nH]c2)on1)N1CCC(Cc2ccc(Cl)cc2)CC1
7. COc1ccc(N2CCN(C(=O)C(=O)Nc3ccc4[nH]c(=O)oc4c3)CC2)cc1F
8. C[C@@H]1CN(c2ccc(Cl)c(F)c2)CCN1C(=O)C(=O)Nc1ccc2[nH]c(=O)oc2c1

1: 3.89; 2: 0.41; 3: 1.24; 4: 0.79; 5: 0.67; 6: 0.38; 7: 3.17; 8: 0.99

Can you look up the measured Kp at 0.5 h of "O=C(Nc1ccc2[nH]c(=O)oc2c1)C(=O)N1CCN(c2ccc(Cl)cc2)CC1" for me?
0.53
